For each of the compounds below, state its growth.
system: CAKI-1 renal; experiment: NCI-60 one-dose screen, 48 h (100 = growth as untreated, 0 = no growth, -100 = all killed); settings: 10 µM
This is part of a sample that, as a whole, favours compounds with a hit. Of some 83,000 tested, about 20% had one in any assay.
One number for each entry, in %.

Solved cases below.
>  <compound>
COc1cc2c(c(OC)c1OC)-c1ccc(O)c(=O)cc1[C@@H](NC(C)=O)CC2

>  <growth, %>
26.6

$$$$
>  <compound>
Cc1ccc(NC(=O)CBr)cc1

>  <growth, %>
104

$$$$
>  <compound>
O=[N+]([O-])c1ccc(Br)c([N+](=O)[O-])c1

>  <growth, %>
-93.5

$$$$
>  <compound>
[Cl][Sn]([c]1ccccc1)([c]1ccccc1)[c]1ccccc1

>  <growth, %>
-87.8

$$$$
>  <compound>
O=C1CCC(=O)N1SC(Cl)(Cl)Cl

>  <growth, %>
109

$$$$

Below is a list of compounds. For each, state its recorded growth.
1. CC/C(=C/c1ccc(OC)cc1)[N+](=O)[O-]
2. S=C=NCCc1ccccc1
3. C[CH2][Hg][S]c1ccccc1C(=O)O
4. O=[N+]([O-])/C=C\c1ccc2c(c1)OCO2
5. COC12C(COC(N)=O)C3=C(C(=O)C(C)=C(N)C3=O)N1CC1C2N1C (stereo not given)

[1.94, 69.4, -95.2, 86.6, 16.6]

----------
test system: SW-620 colon; assay: NCI-60 one-dose screen, 48 h (100 = growth as untreated, 0 = no growth, -100 = all killed); settings: 10 µM
Compounds without any hit were thinned out: in the full panel of roughly 83,000, 20% have a hit.
For each of the molecules below, state its growth.
Numbers only, in %.

>  <molecule>
ClCc1ccc2ccccc2n1

>  <growth (%)>
114

$$$$
>  <molecule>
O=C(CCl)Nc1ccc(Cl)cc1

>  <growth (%)>
39.7

$$$$
>  <molecule>
O=C1CCC(=O)N1SC(Cl)(Cl)Cl

>  <growth (%)>
100

$$$$
>  <molecule>
COc1ccc2c(ccc3oc([N+](=O)[O-])cc32)c1

>  <growth (%)>
7.19

$$$$
>  <molecule>
O=C(CBr)Nc1ccc(Cl)cc1

>  <growth (%)>
9.26

$$$$
>  <molecule>
C[CH2][Hg][S]c1ccccc1C(=O)O

>  <growth (%)>
-87

$$$$

Below is a list of molecules. For each, state its recorded growth.
1. CC(C)(C)OOC(=O)/C=C\C(=O)OOC(C)(C)C
2. Cc1cc(C(C)(C)c2ccc(O)c(C)c2)ccc1O
3. C[C@]12CC[C@H]3[C@@H](CCC4=CC(=O)CC[C@@H]43)[C@@H]1CC[C@@H]2OC(=O)N(CCCl)N=O

1. 98.7
2. 97.2
3. 52.5

Below is a list of molecules. For each, state its recorded growth.
1. CC(=O)Nc1c2sscc-2n(C)c1=O
2. O=S(=O)(F)c1ccc(Cl)cc1
3. O=C(CBr)Nc1ccccc1
4. CC/C(=C/c1ccc(OC)cc1)[N+](=O)[O-]
5. CC[C@@]1(O)C[C@H](OC2CC(N(C)C)C(O)C(C)O2)c2c(cc3c(c2O)C(=O)c2c(O)ccc(O)c2C3=O)[C@H]1C(=O)OC (stereo partly specified)
6. COc1ccccc1[As]=[As]c1ccccc1OC (stereo unspecified)
7. CC(=O)[O][Hg][c]1c(C)c(C)cc(C)c1C
8. COc1cc([N+](=O)[O-])c2ncccc2c1[N+](=O)[O-]

1. -99
2. 100
3. 59.9
4. -76.8
5. -90.5
6. -66.3
7. -93.5
8. -61.5

Below is a list of molecules. For each, state its recorded growth.
1. CC(C)C1(NC(=O)C2CC3c4cccc5[nH]cc(c45)CC3N(C)C2)OC2(O)C3CCCN3C(=O)C(Cc3ccccc3)N2C1=O (stereo unspecified)
2. O=[P+](O)c1ccccc1

1: 103; 2: 106

Below is a list of molecules. For each, state its recorded growth.
1. O=[N+]([O-])c1cc[n+]([O-])c2ccccc12
2. C=C1C(=O)O[C@@H]2C[C@@H](C)[C@@H]3C=CC(=O)[C@@]3(C)[C@@H](O)[C@H]12

1. -69.3
2. -30.5

----------
For each of the compounds below, state its growth.
tested on: SK-MEL-2 melanoma; experiment: NCI-60 one-dose screen, 48 h (100 = growth as untreated, 0 = no growth, -100 = all killed); settings: 10 µM
Compounds without any hit were thinned out: in the full panel of roughly 83,000, 20% have a hit.
One number for each entry, in %.

>  <compound>
CC[C@@H](C)[C@@H]1NC(=O)C(NC(=O)C(CC(C)C)N(C)C(=O)C2CCCN2C(=O)C(C)O)C(C)OC(=O)C(Cc2ccc(OC)cc2)N(C)C(=O)C2CCCN2C(=O)C(CC(C)C)NC(=O)C(C)C(=O)C(C(C)C)OC(=O)C[C@H]1O (stereo partly drawn)

>  <outputUnit>
%

>  <growth>
-52.4

$$$$
>  <compound>
O=[N+]([O-])/C=C\c1ccc2c(c1)OCO2

>  <outputUnit>
%

>  <growth>
115

$$$$

Now turn to the next compound.
Quote growth reported for CCOP(=O)(OCC)/C(C#N)=C/c1ccc(Br)cc1 please. 103

----------
tested on: U251 CNS; assay: NCI-60 one-dose screen, 48 h; conditions: 10 µM
About 83,000 compounds went through this panel and 20% of them were active in at least one assay; those are over-represented in the sample as a whole. Active and inactive are the calls of the source. How the source made its calls: active means growth percent below 10; inactive means the rest.
Returns: one label drawn from active, inactive

Record excerpt, results attached:
>  <structureNotation>
CCCCCCCC[N+]12CN3CN(CN(C3)C1)C2

>  <discreteLabel>
inactive

$$$$
>  <structureNotation>
[Cl][Hg][c]1ccc(Cl)s1

>  <discreteLabel>
inactive

$$$$

Recorded test outcome, item Cc1cc(C)c(C[N+](C)(C)C)c(C)c1C active

Recorded test outcome, item C[C@@H]1C[C@@H]([C@H](O)CC2CC(=O)NC(=O)C2)C(=O)[C@@H](C)C1 active

Recorded test outcome, item O=[N+]([O-])c1ccc(N2CCOCC2)c2c1no[n+]2[O-] active

Recorded test outcome, item C=C1C(=O)O[C@@H]2C[C@@H](C)[C@@H]3C=CC(=O)[C@@]3(C)[C@@H](O)[C@H]12 active

Recorded test outcome, item CC(=O)Nc1c2sscc-2n(C)c1=O active

----------
For each of the compounds below, state its growth.
Test system: M14 melanoma
Assay: NCI-60 one-dose screen, 48 h (100 = growth as untreated, 0 = no growth, -100 = all killed)
Conditions: 10 µM
Description: Growth inhibition of the M14 human tumor cell line is measured as a screen for anti-cancer activity. Cells are grown in 96 well plates and exposed to the test compound for 48 hours. Compounds are tested at a single concentration, which is 10^-5 M for most compounds. The reported endpoint is percent growth (GI% or GIPRCNT), where numbers from 0 - 100% represent growth inhibition, and numbers from -100% - 0 represent cell death. For example, a value of 40 represents 60% growth inhibition. […]
This is part of a sample that, as a whole, favours compounds with a hit. Of some 83,000 tested, about 20% had one in any assay.
Give bare numbers, in %.

Solved cases below.
>  <compound>
Oc1ccccc1-c1ccccc1

>  <growth [%]>
113

$$$$
>  <compound>
CCOP(=O)(OCC)C(O)c1ccccc1Cl (stereo not given)

>  <growth [%]>
103

$$$$
>  <compound>
O=[P+](O)c1ccccc1

>  <growth [%]>
100

$$$$
>  <compound>
Oc1c(Cl)cc(Cl)c2ccccc12.[Cu+2]

>  <growth [%]>
97.9

$$$$

Now turn to the next compound.
Quote growth reported for CCOP(=O)(OCC)/C(C#N)=C/c1ccc(Br)cc1 please. 98.4

----------
system: NCI-H322M lung; assay: NCI-60 one-dose screen, 48 h (100 = growth as untreated, 0 = no growth, -100 = all killed); conditions: 10 µM
The panel holds about 83,000 compounds, 20% with a hit somewhere; the sample as a whole holds those more often.
quantityMeasured: growth (%)
Numbers only, in %.

Solved cases below.
>  <molecule>
O=C1CCC(=O)N1SC(Cl)(Cl)Cl

>  <growth, %>
106

$$$$
>  <molecule>
COc1ccccc1[As]=[As]c1ccccc1OC (centres undefined)

>  <growth, %>
-80.8

$$$$
>  <molecule>
O=C1C(=O)c2ccccc2-c2ccccc21

>  <growth, %>
101

$$$$

Below is a list of molecules. For each, state its recorded growth.
1. C[CH2][Hg][S]c1ccccc1C(=O)O
2. CC(=O)Nc1c2sscc-2n(C)c1=O
3. Cc1ccc(NC(=O)CBr)cc1
4. COc1ccc2c(ccc3oc([N+](=O)[O-])cc32)c1
5. Oc1c(I)cc(I)cc1I
6. NNc1ccccc1

1. 66.2
2. -100
3. 99.4
4. -10.7
5. 110
6. 114
